- METHOD_NOTES: Neutral red uptake assay, viability of normal RPTEC cells
- Type: cell-based
- EXPERIMENTAL_SETUP: human; 100 µM, 72 h treatment, vs control with 1% DMSO = 100%; read-out: Viability of RPTEC cell line
The entries below are paired with their reported viability at 72 h, 100 µM.
Give the quantity in %, number only.

Cc1ccccc1CSc1nc(-c2ccccc2)nc(C)c1CO 44

For the molecule `Cc1nc(-c2ccccc2)nc(NC2CCCCC2)c1CO` , what viability at 72 h, 100 µM is on record? 28

* * *

- Test system: HepaRG
- METHOD_NOTES: Neutral red uptake assay, HepaRG
- Assay type: cell-based, human
- EXPERIMENTAL_SETUP: 72 h incubation
MEASURED_PROPERTY: pIC50
Scale note: pIC50 = -log10(concentration in M).

Return reported pIC50; argument: `Cc1nc(-c2ccccc2)nc(NC(C)(C)C)c1CO` 3.88

* * *

Below, each entry is listed alongside its reported melting point.

Worked set:
Cc1nc(-c2ccccc2)nc(NC(C)(C)C)c1CO 173 to 174 °C
Cc1nc(-c2ccccc2)nc(SCc2ccccc2)c1CO 144 to 145 °C
C=CCNc1nc(-c2ccccc2)nc(C)c1CO 174 to 175 °C
CCCNc1nc(-c2ccccc2)nc(C)c1CO 158 to 159 °C

What value of melting point has been recorded for this entry: `Cc1nc(-c2ccccc2)nc(N)c1CO` 177 to 178 °C
